Listed here: items and their measured zone of inhibition at 2000 µg/mL.
Tested on: Candida albicans
assay: Antimicrobial activity against Candida albicans MTCC 227 at 2 mg/ml by agar well diffusion method
Type: functional
test.settings: read-out: DIZ
Quick note: give the figure in mm, leave out the unit.

// solved cases for zone of inhibition at 2000 µg/mL follow
INSERT INTO results (compound, result_type, value_observed) VALUES
  ('CCc1nnc2n1N=C(c1ccccc1)C(OC)S2 (centres undefined)', 'zone of inhibition at 2000 µg/mL', 16.3),
  ('CCOC1Sc2nnc(CC)n2N=C1c1ccc(F)cc1 (centres undefined)', 'zone of inhibition at 2000 µg/mL', 13),
  ('CCc1nnc2n1N=C(c1ccc(Cl)cc1)C(OC)S2 (centres undefined)', 'zone of inhibition at 2000 µg/mL', 13),
  ('CCOC1Sc2nnc(-c3ccccc3)n2N=C1c1ccccc1 (centres undefined)', 'zone of inhibition at 2000 µg/mL', 15.6),
  ('C[C@@H]1[C@H](O)[C@@H](C)/C=C/C=C/C=C/C=C/C=C/C=C/C=C/[C@H](O[C@@H]2O[C@H](C)[C@@H](O)[C@H](N)[C@@H]2O)C[C@@H]2O[C@](O)(C[C@@H](O)C[C@@H](O)[C@H](O)CC[C@@H](O)C[C@@H](O)CC(=O)O[C@H]1C)C[C@H](O)[C@H]2C(=O)O', 'zone of inhibition at 2000 µg/mL', 14.3);

Query string: // fetch zone of inhibition at 2000 µg/mL; item: CCOC1Sc2nnc(CC)n2N=C1c1ccc([N+](=O)[O-])cc1 (centres undefined) ; system: Candida albicans
Result string: 13.3

Query string: Print Candida albicans zone of inhibition at 2000 µg/mL for CCOC1Sc2nnc(CC)n2N=C1c1ccc(Cl)cc1 (centres undefined) .
Result string: 15.6

Query string: // fetch zone of inhibition at 2000 µg/mL; item: COC1Sc2nncn2N=C1c1ccccc1 (centres undefined) ; system: Candida albicans
Result string: 13.3

Query string: System Candida albicans. Read-out zone of inhibition at 2000 µg/mL. Item CCOC1Sc2nncn2N=C1c1ccccc1 (centres undefined) . Report value.
Result string: 13.6
